assay_target: UniProt:Q9UDY8
Sequence (Q9UDY8 whole entry, the tested form may be a part): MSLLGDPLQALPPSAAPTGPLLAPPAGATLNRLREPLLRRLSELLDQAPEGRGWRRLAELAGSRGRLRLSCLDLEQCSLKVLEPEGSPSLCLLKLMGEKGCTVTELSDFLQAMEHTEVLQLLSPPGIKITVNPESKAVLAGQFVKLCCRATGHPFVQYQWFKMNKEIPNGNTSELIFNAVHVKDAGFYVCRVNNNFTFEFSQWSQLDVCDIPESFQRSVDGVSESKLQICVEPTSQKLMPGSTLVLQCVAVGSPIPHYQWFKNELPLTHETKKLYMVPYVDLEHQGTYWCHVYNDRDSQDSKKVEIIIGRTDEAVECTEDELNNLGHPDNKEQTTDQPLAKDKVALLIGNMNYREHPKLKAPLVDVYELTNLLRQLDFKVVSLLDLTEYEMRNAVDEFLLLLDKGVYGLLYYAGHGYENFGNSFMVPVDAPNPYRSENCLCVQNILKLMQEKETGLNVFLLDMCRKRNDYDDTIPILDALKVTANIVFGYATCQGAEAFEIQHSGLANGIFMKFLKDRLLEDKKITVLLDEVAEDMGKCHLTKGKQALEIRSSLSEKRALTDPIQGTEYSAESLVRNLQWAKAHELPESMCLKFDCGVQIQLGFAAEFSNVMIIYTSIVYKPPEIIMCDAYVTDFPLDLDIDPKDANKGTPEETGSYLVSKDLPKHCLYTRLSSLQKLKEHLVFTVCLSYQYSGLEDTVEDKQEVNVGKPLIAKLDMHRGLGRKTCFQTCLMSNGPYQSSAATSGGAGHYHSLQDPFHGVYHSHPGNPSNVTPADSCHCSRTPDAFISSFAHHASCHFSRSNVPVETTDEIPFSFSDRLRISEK
assay_remarks: Inhibition of full length his-tagged MALT1 (1 to 824 residues) (unknown origin) expressed in Baculovirus infected in insect cells using tetrapeptide-[…]-AMC as fluorescent substrate preincubated for 50 mins followed by substrate addition and measured after 4 hrs by fluorescence based analysis
For each entry below, report its pIC50 value.
Formally, pIC50 is defined as -log10 of the concentration c, with c in mol/L.

# return recorded pIC50 for input C[C@@]1(C(F)(F)F)CN(c2ccc([C@H]3C(F)(F)[C@]3(CO)C(N)=O)cc2)c2cnc3cc(Cl)nn3c21 8.30

Identify the reported pIC50 for the following entry. C[C@@]1(C(F)(F)F)CN(c2ccc([C@H]3C(F)(F)[C@]3(C)C(=O)NCC3CNC(=O)C3)cc2)c2cnc3cc(Cl)nn3c21 (stereo partly specified) 8.22

Item C[C@@]1(C(F)(F)F)CN(c2ccc([C@H]3C(F)(F)[C@]3(C)C(=O)NCCS(N)(=O)=O)cc2)c2cnc3cc(Cl)nn3c21 : provide pIC50 8.22

Please supply the value of reported pIC50 for the item C[C@@]1(C(F)(F)F)CN(c2ccc([C@H]3C(F)(F)[C@]3(C)C(=O)NCC(N)=O)cc2)c2cnc3cc(Cl)nn3c21 8.30

// Input: CC(C)(C)NC(=O)[C@]1(C)[C@@H](c2ccc(N3C[C@@](C)(C(F)(F)F)c4c3cnc3cc(Cl)nn43)cc2)C1(F)F . Output its pIC50 only. 8.22

Recall and state the measured pIC50 for C[C@@]1(C(F)(F)F)CN(c2ccc([C@H]3C(F)(F)[C@]3(C)C(=O)N[C@H]3C[C@@H](C[S+](C)(=N)[O-])C3)cc2)c2cnc3cc(Cl)nn3c21 (stereo partly specified) . 8.22

Data origin, for the record: ChEMBL document CHEMBL6074639
